I'd be grateful if you could share measured composite z-score for these entries.
assay: anti-His antibody binders, primary screen, artefact control for SMM control protein annotation, biochemical, small-molecule microarray, 635 nm fluorescence (AID 1128);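 note: score merges feature fluorescence with signal-to-noise for each printed compound spot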
studyConditions: anti-His Alexa647 antibody binding, higher = more signal
Answers are plain numbers.

• NCCCCCNC(=O)[C@H]1C[C@H]2C(=O)NCC(=O)N2[C@H]1c1ccc(O)cc1 = 2.54

Respectfully, I request composite z-score for each entry included below.
1. COC(=O)C(CC#Cc1ccc2c(c1)[C@]1(C(=O)N2)[C@H](c2ccccc2OCCO)N2[C@H](c3ccccc3)[C@H](c3ccccc3)OC(=O)[C@H]2[C@@H]1C(=O)N1CCCCCCC1)C(=O)OC
2. COC(=O)C1=CC(c2ccc(CO)cc2)=CC(c2cccs2)N(C)C=C1C(=O)OC (configuration not stated)
3. C=C(CCCC)/C(=C/C[C@H](OC(=O)c1ccncc1)c1ccc(CO)o1)c1cnc2ccccc2c1
4. Cc1ccc(S[C@]2(C(=O)NCC(C)C)CC(=O)N(C(C)C)[C@@H]2c2ccc(CO)cc2)cc1
5. O=C1O[C@H](c2ccccc2)[C@H](c2ccccc2)N2[C@H]1[C@@H](C(=O)NC[C@H](O)c1ccccc1)[C@]1(C(=O)Nc3ccc(C#CC4(O)CCCCCC4)cc31)[C@H]2c1ccc(O)cc1

Reply:
1. 0.925
2. 1.48
3. 0.475
4. -1.15
5. 1.23

Ask: Can you look up the measured composite z-score of O=C1c2ccccc2C(=O)c2cc([C@H]3Oc4ccccc4S(=O)(=O)N4CCC[C@@H]34)ccc21 for me?
Reply: -1.02

* * *

assay: basal 3T3-L1 adipocyte mitochondrial potential changes, profiling panel, cell-based, JC-1 fluorescence, 3T3-L1 adipocytes, 24 h, 100 nL compound (AID 1168); note: test concentration not given here
studyConditions: JC-1 mitochondrial fluorescence, higher = more signal, called active from +8 up or from −8 down
# binarize z-score: threshold 0.3 inclusive, high side criterion met, low side criterion not met

# count of solved cases: 3
* C=CCNC(=O)[C@H]1[C@@H]2C(=O)O[C@@H](c3ccccc3)[C@@H](c3ccccc3)N2[C@@H](c2ccc(OCCO)cc2)[C@]12C(=O)Nc1ccc(C#CCCO)cc12 | criterion met
* C/C=C/[C@@H](CCn1cc(CCO[Si](C(C)C)(C(C)C)C(C)C)nn1)[Si](C)(C)c1ccc(OC)cc1 | criterion met
* COC(=O)C1=CC(c2ccc(CO)cc2)=CC(C2CC2)N(C)C=C1C(=O)OC (centres undefined) | criterion met

Ask: Reported z-score at or above 0.3? O=C(O)[C@H]1C[C@H]2C(=O)NCC(=O)N2[C@H]1c1cccc(OCCO)c1
Reply: criterion not met

Ask: For this compound, is measured z-score 0.3 or higher? COc1ccc([Si](C)(C)[C@@H]2[C@@H](CC(=O)N3CCC[C@H]3CO)O[C@]3(C(=O)N(Cc4ccc(N5CCC5=O)cc4)c4ccccc43)[C@H]2C)cc1
Reply: criterion met

Ask: Hello, I need to know if CC(C)CCC[C@@H](C)[C@H]1CC[C@@]2(C)C3=C(CC[C@]12C)[C@@]1(C)CC[C@H](OC(=O)CCl)C(C)(C)C1CC3 (some centres undefined) has measured z-score not below 0.3. Thanks!
Reply: criterion not met

Ask: Please indicate if the recorded z-score for COc1ccc(C#Cc2ccc3c(c2)[C@]2(C(=O)N3)[C@H](c3ccc(O)cc3)N3[C@H](c4ccccc4)[C@H](c4ccccc4)OC(=O)[C@H]3[C@@H]2C(N)=O)cc1 meets or exceeds 0.3.
Reply: criterion not met

Ask: Assess whether reported z-score for NC(=O)N1C(=O)C2C(C1=O)C1C=C(c3ccc(CO)cc3)C2C(C2CC2)N1Cc1cc2c(cc1Br)OCO2 (centres undefined) sits at 0.3 or higher.
Reply: criterion met

Ask: Is it the case that CC(=O)OC(C/C=C\B1OC(C)(C)C(C)(C)O1)c1ccccc1 (centres undefined) has z-score reaching or exceeding 0.3?
Reply: criterion met

Ask: Identify whether the reported z-score of the following compound is 0.3 or greater: O=C1c2ccccc2[C@](Cc2ccccc2I)(C(=O)O)[C@H](c2ccc(CO)cc2)N1Cc1ccccc1Cl
Reply: criterion met

Ask: State whether the measured z-score reaches 0.3, counting equality as reaching it, for C#CCOc1ccc(C[C@H]2C(=O)O[C@H](Cc3ccccc3)[C@H](/C=C/C3CC3)N2CC#C)cc1
Reply: criterion met

Ask: Form field: z-score at least 0.3? Entry: C=C(COC)C(=O)CC[C@@H](OC(=O)c1ccccc1-c1ccccc1C(=O)O)c1cccc(OCCO)c1
Reply: criterion met

Ask: Does the reported z-score for C=CCC(OC(C)=O)[C@@H]1[C@@H](N(Cc2ccc(-c3ccccc3)cc2)C(=O)c2ccc(-c3ccccc3)cc2)c2cc(OCCCO)ccc2N1C(=O)c1ccc(-c2ccccc2)cc1 (some centres undefined) fall at or above the 0.3 mark?
Reply: criterion not met

Ask: Threshold query (z-score >= 0.3) on Cc1ccc(N2C(=O)c3ccccc3[C@](C)(C(=O)NC3CC3)[C@@H]2c2ccc(CO)cc2)nc1
Reply: criterion not met

Ask: Hello, I need to know if [N-]=[N+]=NCc1ccccc1C[C@]1(C(=O)NCc2ccccc2)N=C(c2ccc(OCCCO)cc2)O[C@H]1c1ccccc1 has measured z-score not below 0.3. Thanks!
Reply: criterion met

Ask: Is reported z-score greater than or equal to 0.3 here: CC(C)N1C(=O)c2ccccc2[C@@H](C(=O)NCc2ccccc2)[C@@H]1c1ccc(CO)cc1
Reply: criterion not met

Ask: Hello, I need to know if C=C1C=C(Br)C2(OCCCO2)[C@H]2OC12 (some centres undefined) has measured z-score not below 0.3. Thanks!
Reply: criterion not met
